Measured Inhibitory effect on pulmonary infections: Viral pneumonia of individual entries
# Test system: adenovirus
# procedure_text: Mouse pneumonia model, viral pneumonia
# Assay type: in vivo, BALB/C mice
# Design: unit not given here
# condition_set: nasal drip, average values + standard deviation
Ends that are not written are not given here.
Number, no unit, nothing else.

Solved entries:
{"seq": "PRCYCGEGGGGIVRRADRAAVPGGGGRGD (cysteine pairing not given here) [Polypeptide IV]", "endpoint_result": 70.33}
{"seq": "PRCWRGEGGGGIAVVRRADRAPGGGGRGD [Polypeptide I]", "endpoint_result": 50.00}
{"seq": "PRCWCGEGGGGIVRRADRAAVPGGGGRGD (cysteine pairing not given here) [Polypeptide III]", "endpoint_result": 67.49}

Shift focus to the following entry.
Endpoint output: Inhibitory effect on pulmonary infections: Viral pneumonia of PRCYRGEGGGGIVRRADRAAVPGGGGRGD [Polypeptide II] . Value?
50.27
